Values were extracted from paper PMC6424611.

molecular target: PDZ domain 2 of MAGI3 (human, UniProt Q5TCQ9 410-492); assay: holdup assay
Sequence (Q5TCQ9 410-492): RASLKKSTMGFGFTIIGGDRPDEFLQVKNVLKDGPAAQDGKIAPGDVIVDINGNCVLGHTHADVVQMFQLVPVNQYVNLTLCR
Where no end group is shown, it is not given here. [ ]: non-standard residue; d: D form. The star is where a group is joined. Biotin = O=C1N[C@H]2[C@H](CS[C@H]2CCCCC(=O)*)N1; TTDS = NCCCOCCOCCOCCCNC(=O)CCC(=O)*; pS = N[C@@H](COP(=O)(O)O)C(=O)O
Assignment: determine reported pKd for the given binders.
Keep in mind that pKd stands for -log10 of concentration in molar terms.

Requested read-out: pKd. Entry: {Biotin-TTDS}-RRVRKLPSTTL (peptide, UniProt Q15418 725-735, looked up) [biotinylated RSK1 725-735 peptide, unphosphorylated] 4.39

Which measured pKd value corresponds to {Biotin-TTDS}-RRVRKLP[pS]TTL (peptide, UniProt Q15418 725-735, looked up) [biotinylated RSK1 725-735 peptide, phosphorylated at Ser732 (position -3)] ? 4.39
